Compiled IC50 measurements on Platelet-derived growth factor receptor alpha (Homo sapiens, UniProt P16234) taken from the literature.
Sequence (P16234 whole entry): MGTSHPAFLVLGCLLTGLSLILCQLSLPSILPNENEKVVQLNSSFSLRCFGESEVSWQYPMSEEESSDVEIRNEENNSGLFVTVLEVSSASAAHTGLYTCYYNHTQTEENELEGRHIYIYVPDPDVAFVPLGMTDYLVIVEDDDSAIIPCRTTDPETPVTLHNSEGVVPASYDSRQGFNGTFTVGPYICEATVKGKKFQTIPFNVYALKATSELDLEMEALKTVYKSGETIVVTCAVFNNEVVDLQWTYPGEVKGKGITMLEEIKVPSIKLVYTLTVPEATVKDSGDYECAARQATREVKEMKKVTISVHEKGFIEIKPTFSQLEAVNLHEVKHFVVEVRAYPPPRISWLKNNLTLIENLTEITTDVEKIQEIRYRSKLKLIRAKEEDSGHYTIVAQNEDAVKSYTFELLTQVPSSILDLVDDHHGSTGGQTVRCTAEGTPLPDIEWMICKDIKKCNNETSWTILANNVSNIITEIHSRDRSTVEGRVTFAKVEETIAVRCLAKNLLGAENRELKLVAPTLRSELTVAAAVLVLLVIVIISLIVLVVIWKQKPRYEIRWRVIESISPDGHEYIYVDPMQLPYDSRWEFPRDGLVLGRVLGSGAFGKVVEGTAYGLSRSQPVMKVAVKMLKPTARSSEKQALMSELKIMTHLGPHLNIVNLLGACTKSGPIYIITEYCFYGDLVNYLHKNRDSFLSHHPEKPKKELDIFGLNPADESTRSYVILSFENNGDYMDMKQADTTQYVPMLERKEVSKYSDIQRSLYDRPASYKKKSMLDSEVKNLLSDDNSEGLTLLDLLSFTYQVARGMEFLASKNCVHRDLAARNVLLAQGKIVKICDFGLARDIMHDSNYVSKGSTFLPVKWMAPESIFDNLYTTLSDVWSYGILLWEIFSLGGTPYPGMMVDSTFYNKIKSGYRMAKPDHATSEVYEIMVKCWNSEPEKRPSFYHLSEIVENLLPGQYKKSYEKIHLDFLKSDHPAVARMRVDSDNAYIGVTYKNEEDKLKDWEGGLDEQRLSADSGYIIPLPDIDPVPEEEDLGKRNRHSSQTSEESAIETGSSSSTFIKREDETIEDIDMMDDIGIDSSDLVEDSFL

1) CC(C)c1n[nH]c(C(F)(F)F)c1-c1ccnc(Nc2ccc(N3CCC(N(C)C)CC3)cn2)n1; > 10 µM
2) C=CC(=O)N1CCC[C@H]1C(=O)Nc1cc2c(Nc3cccc(Cl)c3F)ncnc2cc1OCCOC; > 10 µM
3) O=C(c1ccc(F)c(F)c1Nc1ccc(I)cc1F)N1CC(O)([C@@H]2CCCCN2)C1; > 10 µM

Parameters: items (list). Returns: IC50 for each item.
1. Cc1n[nH]c2ccc(-c3cc(N[C@@H](CO)c4ccccc4)cnc3Cl)cc12
2. C[C@@H](Nc1c(Nc2ccnc(-c3ccccc3F)c2)c(=O)c1=O)c1ccccc1
3. N[C@H]1CC[C@H](Nc2nc(NCc3ccccc3)c3ncn(C4CCCC4)c3n2)CC1
4. CN1CCN(c2ccccc2CNC(=O)c2ccc(F)c(NC(=O)c3cnc4cc(-c5cc[nH]n5)ccn34)c2)CC1
5. COc1ccc(Nc2nc(N3CCC(NC(=O)c4ccc(C(=O)O)cn4)C3)nc3c2COC3)cc1 (stereo not given)
6. CCNC(=O)c1ccc2c(c1)NC(=O)/C2=C\Nc1ccc(N(C)C(=O)CN2CCN(C)CC2)cc1

1: > 1 µM; 2: > 50 µM; 3: > 20 µM; 4: < 0.0001 µM; 5: > 50 µM; 6: > 5 µM
